Target: T1, Human IL13Rα2 (human, UniProt Q14627 27-343, limits assumed)
T1 construct: also called human recombinant IL13Rα2; Human IL13Ra2
T1 sequence (looked up): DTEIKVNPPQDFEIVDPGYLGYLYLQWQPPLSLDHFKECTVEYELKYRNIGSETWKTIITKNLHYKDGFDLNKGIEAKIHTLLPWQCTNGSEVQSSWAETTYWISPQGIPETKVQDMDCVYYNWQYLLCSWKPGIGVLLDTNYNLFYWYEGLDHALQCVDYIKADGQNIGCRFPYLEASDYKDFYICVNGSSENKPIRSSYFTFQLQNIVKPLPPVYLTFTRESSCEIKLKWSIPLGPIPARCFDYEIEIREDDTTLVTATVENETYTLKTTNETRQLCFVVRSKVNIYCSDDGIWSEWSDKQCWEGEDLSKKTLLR
Assay: SPR Biacore 8K affinity ranking, antibody supernatant Fc-captured, 100 nM IL13Rα2 analyte
ASSAY METRIC: koff (s⁻¹)
The reply should be a number in s⁻¹, with the unit left off.

# annotated cases, reported koff shown
BINDER	REPORTED VALUE
Humanized antibody VH2 + VL2 (antibody, human IgG1, kappa, V domains shown) VH: QVQLVQSGAEVKKPGASVKVSCKASGYTFSNYLMNWVRQAPGQRLEWMGRIDPYDGDIDYNQNFKDRVTITRDTSASTAYMELSSLRSEDTAVYYCARGYGTAYGVDYWGQGTLVTVSS VL: DIQMTQSPSSLSASVGDRVTITCRASESVDNYGISFMNWYQQKPGKAPKLLIYAASRQGSGVPSRFSGSGSGTDFTLTISSLQPEDFATYYCQQSKEVPWTFGGGTKLEIKR	0.000555
Humanized antibody VH1 + VL3 (antibody, human IgG1, kappa, V domains shown) VH: QVQLVQSGAEVKKPGSSVKVSCKASGYTFSNYLMNWVRQAPGQGLEWMGRIDPYDGDIDYNQNFKDRVTITADKSTSTAYMELSSLRSEDTAVYYCARGYGTAYGVDYWGQGTLVTVSS VL: EIVLTQSPATLSLSPGERATLSCRASESVDNYGISFMNWYQQKPGQAPRLLIYAASRQGSGIPARFSGSGSGTDFTLTISSLEPEDFAVYYCQQSKEVPWTFGGGTKLEIKR	0.000463
Humanized antibody VH1 + VL1 (antibody, human IgG1, kappa, V domains shown, also called Humanized VH1-VL1; U3621EI120 VH1+VL1) VH: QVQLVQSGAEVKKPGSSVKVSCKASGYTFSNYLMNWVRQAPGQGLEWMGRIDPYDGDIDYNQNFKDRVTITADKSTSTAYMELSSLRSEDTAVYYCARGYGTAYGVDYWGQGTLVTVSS VL: DIVMTQSPDSLAVSLGERATINCRASESVDNYGISFMNWYQQKPGQPPKLLIYAASRQGSGVPDRFSGSGSGTDFTLTISSLQAEDVAVYYCQQSKEVPWTFGGGTKLEIKR	0.000329
Humanized antibody VH2 + VL1 (antibody, human IgG1, kappa, V domains shown) VH: QVQLVQSGAEVKKPGASVKVSCKASGYTFSNYLMNWVRQAPGQRLEWMGRIDPYDGDIDYNQNFKDRVTITRDTSASTAYMELSSLRSEDTAVYYCARGYGTAYGVDYWGQGTLVTVSS VL: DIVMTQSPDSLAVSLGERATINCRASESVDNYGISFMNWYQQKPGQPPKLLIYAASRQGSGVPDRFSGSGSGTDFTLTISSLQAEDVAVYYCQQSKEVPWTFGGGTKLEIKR	0.000417

API: the following record is the query input.
What measured koff goes with Humanized antibody VH1 + VL2 (antibody, human IgG1, kappa, V domains shown) VH: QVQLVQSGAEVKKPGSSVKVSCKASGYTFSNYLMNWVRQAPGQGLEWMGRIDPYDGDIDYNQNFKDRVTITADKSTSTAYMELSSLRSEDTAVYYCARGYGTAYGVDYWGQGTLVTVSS VL: DIQMTQSPSSLSASVGDRVTITCRASESVDNYGISFMNWYQQKPGKAPKLLIYAASRQGSGVPSRFSGSGSGTDFTLTISSLQPEDFATYYCQQSKEVPWTFGGGTKLEIKR ? 0.000312
